Just for reference, the array DNA melting data of Ke et al. (doi:10.1101/2024.01.08.574731) is where these values come from.

experiment: melting temperature; fluorescence melt of hairpins on a sequencing array, two-state fit, raised by 9.35 °C to match UV melts; settings: sodium 0.088 M
Readout kind: Tm (°C)
Supply the numeric figure in °C, leaving out any unit text.

Hello, please tell me recorded Tm for this one: GCTAATGAAAATTAGC ((((((....))))))
50

Give me measured Tm, please, for this sequence: GCACTTGGAAACAGGTGC ((((.((....)).))))
51.7

In one line, give reported Tm of the entry GCCGTTCGAAAGAAGGC (((.(((....)))))) .
50.4

Name the recorded Tm of the item GGCGAAACGAAAGTTGCC (((..(((....)))))) in your answer.
49.5

Please supply the value of reported Tm for the item GCTAGAGCGAAAGCTAGC (((..(((....))))))
47.4

Kindly indicate its recorded Tm. Item: CGACCGGAAACGGCTTCG ((((((....)))..)))
28.5

====

experiment: folding enthalpy; higher = less favourable; fluorescence melt of hairpins on a sequencing array, two-state fit; conditions: sodium 0.088 M
Some sequences, each annotated with its measured folding enthalpy.
Give just the numeric value; kcal/mol need not be written.

{"Primary sequence": "GTGTTGGGAAACCGACAC ((((.((....)).))))", "folding enthalpy, kcal/mol": -45.5}

Please supply the value of reported folding enthalpy for the item GAAACGGGAAACCGTCTC ((.((((....)))).))
-13.5

Provide one value: measured folding enthalpy of GTCCGACGAAAGTCTGAC (((.(((....))).)))
-27.1

For the sequence GGACTCGAAAGAGGTCC ((((((....))).))) , report folding enthalpy.
-35.2

Please look at this sequence and report its folding enthalpy: GCCTCTGGAAACAAAGGC ((((.((....)).))))
-26.1

Could you please provide reported folding enthalpy for GCCGCTTCGAAAGAAGGC (((..(((....)))))) ? Thanks!
-13.2

====

experiment: melting temperature; fluorescence melt of hairpins on a sequencing array, two-state fit, raised by 9.35 °C to match UV melts; settings: sodium 0.088 M
Readout kind: Tm
Please make sure the unit comes right after the number.

Solved entries (count: 8):
{"Primary sequence": "GATCCAGTCCTGGATC ((((((....))))))", "Readout kind": "Tm", "Result": "56.5 °C"}
{"Primary sequence": "GTGTGTCGAAAGACTCAC (((.(((....))).)))", "Readout kind": "Tm", "Result": "53.2 °C"}
{"Primary sequence": "GATCCTGGTAGGATC ((((((...))))))", "Readout kind": "Tm", "Result": "54.6 °C"}
{"Primary sequence": "GCCCTACGAAAGTATGGC (((.(((....))).)))", "Readout kind": "Tm", "Result": "49 °C"}
{"Primary sequence": "GTCTAACGAAAGTTGAC (((.(((....))))))", "Readout kind": "Tm", "Result": "43.6 °C"}
{"Primary sequence": "GCCAGACGAAAGTCAGGC (((.(((....))).)))", "Readout kind": "Tm", "Result": "64.8 °C"}
{"Primary sequence": "GTTCCCCGAAAGGGAAAC (((.(((....))).)))", "Readout kind": "Tm", "Result": "46.5 °C"}
{"Primary sequence": "TGTGTGAAAACACA (((((....)))))", "Readout kind": "Tm", "Result": "49 °C"}

Please list Tm recorded for the sequence GTCGGGGGAAACCCCGGC (.(((((....))))).)
62.5 °C

Output Tm of GCTTGGGGAAACCCAGGC ((.((((....)))).))
52.4 °C

Consider the sequence GATCCATCGTTGGATC ((((((....)))))) and give its recorded Tm.
51.7 °C

Input GCCTTGCGAAAGCGGGGC (((..((....))..))) , output reported Tm.
65.2 °C

Look up and report measured Tm for this entry: GGTTATGAAAATAACC ((((((....))))))
50.9 °C

# return recorded Tm for input GATTCGCGAAAGCGATC (((.(((....))))))
44.5 °C

Write down Tm measured for item GATCCATGGTGGATC ((((((...))))))
50.6 °C

Look up and state reported Tm for GCCGACGAAAGTCTTGGC ((((((....)))..)))
48.1 °C

Supply recorded Tm for GCGAGCGCTCGC ((((....)))) here.
65 °C

Look up Tm of GATCCTTACCAGGATC ((((((....)))))) and report it.
52.1 °C

Give a short answer stating reported Tm for GCCGGCACGAAAGTGGGC (((..(((....)))))) .
51.8 °C

Dear colleague, please send me the reported Tm for GAAAGCGAAAGCTTTC ((((((....)))))) when you can.
64.7 °C

Fill in reported Tm for this entry: GTTGCTGGAAACAGTGAC ((..(((....)))..))
39.2 °C

Item GCATCCGAAAGGATATGC ((((((....)))..))) : provide Tm
47.6 °C

Return the recorded Tm value; entry: GGGTGGGCGAAAGCCCCC (((..(((....))))))
54.5 °C

Return Tm for the following sequence: GGTATGGGAAACCATGTC (..((((....))))..)
27.4 °C

Item GATCCTGATCAGGATC ((((((....)))))) : provide Tm
56.1 °C

State its Tm: GATCTGAGTACAGATC ((((((....))))))
49.6 °C

Please give measured Tm of the following entry: GACACCGAAAGGTCAGTC ((((((....)))..)))
35.9 °C

Specify reported Tm for the sequence shown: GATCGCCGTCGCGATC ((((((....))))))
66.6 °C

Give the value of Tm reported for the following: GCTCCCCCGAAAGGGAGC (((..(((....))))))
66.1 °C
